Species on record: Oryctolagus cuniculus
Assay: Inhibition of iron-dependent peroxidation of rabbit vesicular membrane lipids (minimum test concentration that gave greater than 50% inhibition).
Assay type: functional
quantity: MIC (µM)
Respond with the bare value in µM.

For the molecule CCC(CC)Oc1cc(CN(C)C)cc(OC(CC)CC)c1O.Cl , report MIC.
10

Please supply the value of reported MIC for the item CCCCCCCNCc1cc(OC)c(O)c(OC)c1.Cl
30

Given the molecule CCCOC(=O)c1cc(O)c(O)c(O)c1 [PROPYL GALLATE] , write its reported MIC.
3

Report MIC for CCOc1cc(CN(C)C)cc(OCC)c1O.Cl
100

Identify the reported MIC for the following entry. CCCCCCCNCc1cc(OC(C)C)c(O)c(OC(C)C)c1.Cl
10

Find the measured MIC of CCCCCCCOc1c(O)cc(CN(C)C)cc1O.Cl and report it.
30

State its MIC for this molecule: CCCCCCCOc1c(O)cc(CN2CCN(CCO)CC2)cc1O.Cl.Cl
30

# return recorded MIC for input CCCCCCCCCNCc1cc(OC)c(O)c(OC)c1.Cl
5.3

Tell me its MIC given CCCCCN(CCCCC)Cc1cc(OC)c(O)c(OC)c1.Cl as the entry.
30

Supply MIC value. Item: CCCOc1cc(CN(C)C)cc(OCCC)c1O.Cl
30

Consider the molecule CN(C)Cc1cc(OC2CCCC2)c(O)c(OC2CCCC2)c1.Cl and give its recorded MIC.
10

// Input: CCCCCCCOc1cc(CN2CCN(CCO)CC2)cc(OC)c1O.Cl.Cl . Output its MIC only.
2.3

Check the records and state MIC for CCCCCCOc1cc(CN(C)C)cc(OCCCCCC)c1O.Cl
1

Kindly indicate its recorded MIC. Item: CCCCCNCc1cc(OC(C)C)c(O)c(OC(C)C)c1.Cl
30

For the molecule CCCCCCCOc1cc(CN(C)C)cc(OC)c1O.Cl , give its reported MIC.
2.3

Recall and state the measured MIC for CCCCCCCOc1cc(CN(C)C)cc(OCCCCCCC)c1O.Cl .
1

Supply MIC value. Item: COc1cc(CN(CC(C)C)CC(C)C)cc(OC)c1O.Cl
30
